- Protocol text: clinical
- Format: in vivo
- Test settings: both sexes, human, in vivo, po, 1350 mg

{"Molecule": "O=C(c1cccnc1-c1ccncc1)N1CCC(O)(Cc2ccccc2)CC1 [soticlestat]", "Vd/F": "852 L"}

---

- Protocol text: clinical
- Type: in vivo
- Test settings: both sexes, human, in vivo, po, 900 mg

{"Compound structure": "O=C(c1cccnc1-c1ccncc1)N1CCC(O)(Cc2ccccc2)CC1", "Unit": "L", "Vd/F": 1230}

---

- Protocol text: Healthy Japanese subjects, Part 2 (100, 200, 300 mg BID up-titration): PK of TAK-935 and M-I
- Assay type: in vivo, human
- Test settings: human, plasma, oral, 100 mg, Day 1 (100 mg BID), Part 2, Geo Mean; read-out: Cmax
Quantity name: Cmax (ng/mL)

{"Compound structure": "O=C(c1cccnc1-c1ccncc1)N1CCC(O)(Cc2ccccc2)CC1", "Quantity name": "Cmax", "Endpoint result": 201}

---

- Protocol text: Healthy Japanese subjects, Part 2 (100, 200, 300 mg BID up-titration): PK of TAK-935 and M-I
- Type: in vivo, human
- Test settings: human, plasma, oral, 200 mg, TAK-935; Day 14, 200 mg BID; read-out: Mean AUCτ

{"Compound structure": "O=C(c1cccnc1-c1ccncc1)N1CCC(O)(Cc2ccccc2)CC1", "AUC": "861 ng·h/mL"}

---

- Protocol text: clinical
- Type: in vivo
- Test settings: both sexes, human, in vivo, po, 200 mg
Quantity name: Tmax (min)

{"Compound structure": "O=C(c1cccnc1-c1ccncc1)N1CCC(O)(Cc2ccccc2)CC1", "Unit": "min", "Endpoint result": 15}

---

- Protocol text: Adult DEE patients (study TAK-935-2001): PK of soticlestat tablets BID
- Test settings: human, in vivo; Study TAK-935-2001; 200 mg BID; Mean; read-out: Cmax, ss

{"Compound structure": "O=C(c1cccnc1-c1ccncc1)N1CCC(O)(Cc2ccccc2)CC1", "Cmax [ng/mL]": 1270}

---

- Protocol text: clinical
- Format: in vivo
- Test settings: both sexes, human, in vivo, po, 200 mg
Quantity name: AUC(0-t) (ng·h/mL)

{"Molecule": "O=C(c1cccnc1-c1ccncc1)N1CCC(O)(Cc2ccccc2)CC1 [soticlestat]", "Quantity name": "AUC(0-t)", "Endpoint result": 563}

---

- Protocol text: clinical
- Test settings: human, in vivo, 300 mg

{"Compound structure": "O=C(c1cccnc1-c1ccncc1)N1CCC(O)(Cc2ccccc2)CC1", "clearance": "3170 mL/min"}

---

- Protocol text: Healthy Japanese subjects, Part 2 (100, 200, 300 mg BID up-titration): PK of TAK-935 and M-I
- Assay type: in vivo, human
- Test settings: human, plasma, oral, 200 mg, Day 14 (200 mg BID), Part 2, Geo Mean; read-out: AUCtau

{"Compound structure": "O=C(c1cccnc1-c1ccncc1)N1CCC(O)(Cc2ccccc2)CC1", "AUC (ng·h/mL)": 789}

---

- Protocol text: clinical
- Type: in vivo
- Test settings: both sexes, human, in vivo, po, 1350 mg, Cmax, mean
Quantity name: Cmax (ng/mL)

{"Compound structure": "O=C(c1cccnc1-c1ccncc1)N1CCC(O)(Cc2ccccc2)CC1", "Endpoint result": 7950}
